# Study System: Regulator of G-protein signaling 4 (Homo sapiens)
# Method Description: blockers of RGS4 function in M3R calcium signaling – cell-based, HEK293 M3R inducible RGS4, calcium flux, primary screen (AID 463165);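 also: RGS4 expression induced by doxycycline in cells with stable M3 receptor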
# Condition Context: Fluo-4 calcium flux, at 10 µM, triggered by carbachol at its EC20
About 1,400 (0.45%) of roughly 310,000 compounds were called active.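 The calls were made as follows: active = B-score, a plate-corrected calcium signal, over three deviations above library mean, with baseline fluorescence within five deviations of library mean; inactive = the rest.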 Many of the other results were omitted from the sample, so actives are more common in it than they were.
Allowed answers: active, inactive

INPUT: Please let me know the test result on file for CCOC(=O)C1CCN(C(c2cc3cc(C)cc(C)c3[nH]c2=O)c2nnnn2C2CCCCC2)CC1 (stereo not given) .
OUTPUT: active

INPUT: Please let me know the test result on file for c1ccc(CN=C2Nc3ccccc3CS2)nc1 .
OUTPUT: inactive

INPUT: Please let me know the test result on file for CNc1nc(Nc2ccc(C)c(Cl)c2)nc(N)c1[N+](=O)[O-] .
OUTPUT: active

INPUT: Please let me know the test result on file for COC(=O)/C=C(\Oc1ccccc1)C1(O)CCCCC1 .
OUTPUT: inactive

INPUT: Please let me know the test result on file for Cc1nccn1CC(=O)N/N=C/c1ccc(O)c(O)c1 .
OUTPUT: inactive

INPUT: Please let me know the test result on file for C/C(=N\NC(=O)CSc1nc2ccccc2c(=O)n1-c1ccccc1C)c1cccs1 .
OUTPUT: inactive

INPUT: Please let me know the test result on file for Cn1c(N2CCOCC2)c(C=O)c2ccccc21 .
OUTPUT: inactive

INPUT: Please let me know the test result on file for COc1ccc(N2CCN(C(c3cc4ccc(C)cc4[nH]c3=O)c3nnnn3C3CCCC3)CC2)cc1 (stereo not given) .
OUTPUT: inactive

INPUT: Please let me know the test result on file for CC(C)CN(C(=O)CN1CCN(S(=O)(=O)c2ccccc2)CC1)c1c(N)n(CC(C)C)c(=O)[nH]c1=O .
OUTPUT: inactive

INPUT: Please let me know the test result on file for COc1cccc(Nc2nc(N)c([N+](=O)[O-])c(NCc3ccco3)n2)c1 .
OUTPUT: inactive

----------
# Study System: Regulator of G-protein signaling 4 (Homo sapiens) (UniProt P49798)
# Sequence (P49798 whole entry, looked up): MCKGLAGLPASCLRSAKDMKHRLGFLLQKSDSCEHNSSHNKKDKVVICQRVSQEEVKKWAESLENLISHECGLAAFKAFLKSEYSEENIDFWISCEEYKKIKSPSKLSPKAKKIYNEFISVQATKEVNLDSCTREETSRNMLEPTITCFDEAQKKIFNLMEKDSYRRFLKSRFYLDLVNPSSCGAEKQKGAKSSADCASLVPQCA
# Method Description: blockers of RGS4 function in M3R calcium signaling – cell-based, HEK293 M3R inducible RGS4, calcium flux, primary screen (AID 463165);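 also: RGS4 expression induced by doxycycline in cells with stable M3 receptor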;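 as to B-score: B-score is computed from the integrated fluorescence ratio over baseline after carbachol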
# Condition Context: Fluo-4 calcium flux, at 10 µM, triggered by carbachol at its EC20; stronger effect = higher value
Out of some 310,000 compounds screened, about 1,400 (0.45%) were called active. This excerpt belongs to a sample that is enriched for actives.
Readout: B-score

[
  {
    "Compound": "CN(CC1CCCN(CCc2cccc(C(F)(F)F)c2)C1)C(=O)c1ccc2nc[nH]c2c1 (stereo not given)",
    "Readout": "B-score",
    "Test Value": "inactive"
  },
  {
    "Compound": "C=CCNc1nc(N)c([N+](=O)[O-])c(NC2CCCCC2)n1",
    "Readout": "B-score",
    "Test Value": "7.68 (active)"
  },
  {
    "Compound": "Nc1nc(Nc2ccccc2F)nc(NC2CCCCC2)c1[N+](=O)[O-]",
    "Readout": "B-score",
    "Test Value": "inactive"
  },
  {
    "Compound": "O=C(O)C1C2C=CC(O2)C1C(=O)NCCc1cccc(Cl)c1 (stereo not given)",
    "Readout": "B-score",
    "Test Value": "inactive"
  }
]

Next up:
INPUT: Return B-score for the following compound: Cc1cccc(CN2CCN(Cc3cnn(-c4ccccc4F)c3)CC2CCO)n1 (stereo not given)
OUTPUT: inactive

----------
# Study System: Regulator of G-protein signaling 4 (Homo sapiens)
# Method Description: blockers of RGS4 function in M3R calcium signaling – cell-based, HEK293 M3R inducible RGS4, calcium flux, primary screen (AID 463165);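 also: RGS4 expression induced by doxycycline in cells with stable M3 receptor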
# Condition Context: Fluo-4 calcium flux, at 10 µM, triggered by carbachol at its EC20
Out of some 310,000 compounds screened, about 1,400 (0.45%) were called active.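 The calls were made as follows: active = B-score, a plate-corrected calcium signal, over three deviations above library mean, with baseline fluorescence within five deviations of library mean; inactive = the rest.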 Many of the other results were omitted from the sample, so actives are more common in it than they were.
Allowed answers: t (active), f (inactive)

INPUT: Please let me know the test result on file for O=C(CSc1ncn[nH]1)N/N=C/c1ccc(F)cc1 .
OUTPUT: f

INPUT: Please let me know the test result on file for CCN(CC)S(=O)(=O)c1ccc(N2CC(C(=O)NCc3cccnc3)CC2=O)cc1 (stereo unspecified) .
OUTPUT: f

INPUT: Please let me know the test result on file for Cc1ccc(C(=O)/C=C/c2c(C)nn(-c3ccccc3)c2Cl)cc1 .
OUTPUT: f

INPUT: Please let me know the test result on file for O=C(/C=C/Sc1ncn[nH]1)c1ccc(Cl)cc1 .
OUTPUT: t

INPUT: Please let me know the test result on file for [O-][n+]1ccc(OCc2ccccc2)cc1 .
OUTPUT: f

INPUT: Please let me know the test result on file for Cc1cccc(-c2nnc(SCC(=O)O)n2Cc2ccccc2)c1 .
OUTPUT: f

----------
# Study System: Regulator of G-protein signaling 4 (Homo sapiens) (UniProt P49798)
# Method Description: blockers of RGS4 function in M3R calcium signaling – cell-based, HEK293 M3R inducible RGS4, calcium flux, primary screen (AID 463165);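 also: RGS4 expression induced by doxycycline in cells with stable M3 receptor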
# Condition Context: Fluo-4 calcium flux, at 10 µM, triggered by carbachol at its EC20
Screen size: about 310,000 compounds; about 1,400 (0.45%) were called active.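 The calls were made as follows: active = B-score, a plate-corrected calcium signal, over three deviations above library mean, with baseline fluorescence within five deviations of library mean; inactive = the rest.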 The list comes from a sample in which actives are over-represented; it also holds close analogues and randomly drawn compounds.
Allowed answers: label 1 = active, label 0 = inactive

INPUT: Please let me know the test result on file for CCC(c1nnnn1Cc1ccco1)N(Cc1cc2cc(OC)ccc2[nH]c1=O)C1CCCCC1 (centres undefined) .
OUTPUT: label 1

INPUT: Please let me know the test result on file for O=C(/C=C/c1cccc([N+](=O)[O-])c1)N1CCN(Cc2ccccc2)CC1 .
OUTPUT: label 0

INPUT: Please let me know the test result on file for c1ccc(C[C@H]2CNCCN2CCC23CC4CC(CC(C4)C2)C3)cc1 .
OUTPUT: label 1

INPUT: Please let me know the test result on file for O=C(Nc1ccccc1)OCc1cn(-c2ccc(Cl)cc2)nn1 .
OUTPUT: label 0

INPUT: Please let me know the test result on file for COc1ccccc1-n1c(-c2cc(-c3ccco3)[nH]n2)n[nH]c1=S .
OUTPUT: label 0

INPUT: Please let me know the test result on file for O=C(Nc1cccc(Cl)c1)OCc1ccccn1 .
OUTPUT: label 0

INPUT: Please let me know the test result on file for Cc1cc(C)c2nc(-c3ccco3)cc(C(=O)O)c2c1 .
OUTPUT: label 0

INPUT: Please let me know the test result on file for CC(C)=CCCC1(C)C=Cc2c(ccc3c2[nH]c2cc(O)c(C)cc23)O1 (centres undefined) .
OUTPUT: label 0

INPUT: Please let me know the test result on file for Cn1c(-c2ccco2)nc2cc3ccccc3cc21 .
OUTPUT: label 1

INPUT: Please let me know the test result on file for CC(=O)Nc1cccc(-c2nc3ccccc3s2)c1C .
OUTPUT: label 0

INPUT: Please let me know the test result on file for O=C(O)c1cccc(S(=O)(=O)Nc2ccc(O)cc2Sc2nc3ccccc3s2)c1 .
OUTPUT: label 0

INPUT: Please let me know the test result on file for COc1cccc(N2CC(C(=O)NCc3n[nH]c(=O)c4ccccc34)CC2=O)c1 (centres undefined) .
OUTPUT: label 0

INPUT: Please let me know the test result on file for O=C(CCN1CCc2ccccc2C(O)(c2ccccc2)C1)c1ccc2c(c1)OCCO2 (centres undefined) .
OUTPUT: label 1

INPUT: Please let me know the test result on file for COCCn1c(SCC(=O)c2[nH]c(C)c(C(C)=O)c2C)nc2ccccc2c1=O .
OUTPUT: label 0

INPUT: Please let me know the test result on file for Oc1ccc(-c2[nH]ncc2-c2nc3ccccc3s2)c(O)c1 .
OUTPUT: label 1

INPUT: Please let me know the test result on file for Oc1c(Cl)cc(Cl)cc1/C=N/c1ncn[nH]1 .
OUTPUT: label 0

INPUT: Please let me know the test result on file for O=c1[nH]c(N2CCOCC2)nc2ccccc12 .
OUTPUT: label 0

INPUT: Please let me know the test result on file for CCC(c1nnnn1Cc1ccccc1)N(Cc1cc2cc(OC)ccc2[nH]c1=O)CC1CCCO1 (centres undefined) .
OUTPUT: label 0

INPUT: Please let me know the test result on file for CCC1(C(=O)c2ccccc2)C(c2cccc([N+](=O)[O-])c2)C1(C(=O)OC)C(=O)OC (centres undefined) .
OUTPUT: label 0

INPUT: Please let me know the test result on file for CCOc1ccc(OCC)c(NC(=O)CCS(=O)(=O)c2ccc(C)cc2)c1 .
OUTPUT: label 0

INPUT: Please let me know the test result on file for Cc1c(NC(=O)c2coc(=O)c(Br)c2)c(=O)n(-c2ccccc2)n1C .
OUTPUT: label 1

INPUT: Please let me know the test result on file for COc1ccc(Oc2cn[nH]c2-c2ccc(OC)cc2O)cc1 .
OUTPUT: label 0

INPUT: Please let me know the test result on file for O=[N+]([O-])/C=C/c1ccc2c(ccn2Cc2ccccc2)c1 .
OUTPUT: label 1

INPUT: Please let me know the test result on file for O=C(O)C(c1ccccc1)N1C(=O)/C(=C\c2ccc(-c3cccc(Cl)c3)o2)SC1=S (centres undefined) .
OUTPUT: label 1

INPUT: Please let me know the test result on file for CCc1nn(CCCC(=O)NCc2ccc(C)cc2)c(=O)c2cc3occc3n12 .
OUTPUT: label 0

INPUT: Please let me know the test result on file for CC1(C)Cc2c(C#N)c(SCc3nc4ccccc4[nH]3)nc(N3CCOCC3)c2CO1 .
OUTPUT: label 0

INPUT: Please let me know the test result on file for COC(=O)c1ccc(Nc2ncnc3sccc23)cc1 .
OUTPUT: label 0

INPUT: Please let me know the test result on file for CS(=O)(=O)N(CC(O)Cn1c2ccccc2c2ccccc21)c1cccc2ccccc12 (centres undefined) .
OUTPUT: label 1

INPUT: Please let me know the test result on file for Cc1nn(-c2ccccc2)c2c1C(c1ccc(F)cc1)C(C#N)=C(N)O2 (centres undefined) .
OUTPUT: label 0

INPUT: Please let me know the test result on file for CC(C)(C)Oc1ccccc1Nc1nc(NCCO)nc(N2CCCC2)n1 .
OUTPUT: label 0

INPUT: Please let me know the test result on file for CCOc1ccc(NC(=O)C/C(C)=N/NC(=O)Cc2cccs2)cc1 .
OUTPUT: label 1

INPUT: Please let me know the test result on file for CC(CC(=O)C1C(C)C=CCC1(C)C)NNC(N)=O (centres undefined) .
OUTPUT: label 0

INPUT: Please let me know the test result on file for CCOc1ccc(NC(=S)NC(=O)/C=C/c2ccc(OC)cc2)c([N+](=O)[O-])c1 .
OUTPUT: label 0

INPUT: Please let me know the test result on file for COc1cc(NC(=O)CSC(=S)N2CCCC2)c(OC)cc1Cl .
OUTPUT: label 0

INPUT: Please let me know the test result on file for O=C1NN(c2ccccc2)C(=O)/C1=C/c1ccc(-c2cccc(C(=O)O)c2)o1 .
OUTPUT: label 0

INPUT: Please let me know the test result on file for CCCCN(CCCC)CC(O)Cn1c2ccccc2c(=O)c2ccccc21 (centres undefined) .
OUTPUT: label 0

INPUT: Please let me know the test result on file for CCOC(=O)c1ccc(NC(=O)Cc2cccs2)cc1 .
OUTPUT: label 0

INPUT: Please let me know the test result on file for COCCNC(=O)CSc1nc2c(n1-c1ccccc1)CCCC2 .
OUTPUT: label 0

INPUT: Please let me know the test result on file for Cc1c(NC(=O)c2cccnc2)c(=O)n(-c2ccccc2)n1C .
OUTPUT: label 0

INPUT: Please let me know the test result on file for Cc1nc(Nc2ccc(S(=O)(=O)N3CCCC3)cc2)c2nnn(Cc3ccccc3)c2n1 .
OUTPUT: label 0

INPUT: Please let me know the test result on file for Cc1ccc(-n2[nH]c(C)c(/C=N/NC(=O)c3cccc([N+](=O)[O-])c3)c2=O)cc1C .
OUTPUT: label 0

INPUT: Please let me know the test result on file for Clc1ccc(Nc2ncnc3c2nnn3Cc2ccccc2)cc1 .
OUTPUT: label 0

INPUT: Please let me know the test result on file for COc1ccc(C(=O)/C=C/c2ccc(OC3CSC3)cc2)cc1 .
OUTPUT: label 0

INPUT: Please let me know the test result on file for Cc1ccc(C)c2c1cc(C)c1nnc(SCC(=O)Nc3cccc(C(=O)O)c3)n12 .
OUTPUT: label 0
